- protocol.text: Solubility estimates by aliquot addition method in various solvents
- Type: physicochemical
- applied.conditions: EtOH, 50 °C, organic solvent or mixture, thermodynamic from solid; read-out: Solubility at 50° C.
metric: solubility

// Input: Cc1n[nH]c2nc(-c3ccc(NS(=O)(=O)c4cc(F)ccc4F)c(F)c3)nc(NCCN(C)C)c12 . Output its solubility only.
< 2000 µg/mL

----------
- protocol.text: Estimated solubility by solvent addition method via visual assessment
- Type: physicochemical
- applied.conditions: organic solvent or mixture, thermodynamic from solid; MeOH/Water (9/1, v/v), room temperature; read-out: Solubility
metric: solubility

For the compound Cc1n[nH]c2nc(-c3ccc(NS(=O)(=O)c4cc(F)ccc4F)c(F)c3)nc(NCCN(C)C)c12 [Compound 4 Form B] , report solubility.
75 to 150 mg/mL

----------
- protocol.text: Estimated solubility by solvent addition method via visual assessment
- Assay type: physicochemical
- applied.conditions: organic solvent or mixture, thermodynamic from solid; ACN/Water (9/1, v/v), room temperature; read-out: Solubility
metric: solubility

Consider the compound Cc1n[nH]c2nc(-c3ccc(NS(=O)(=O)c4cc(F)ccc4F)c(F)c3)nc(NCCN(C)C)c12 [Compound 4 Form B] and give its recorded solubility.
15 to 20 mg/mL

----------
- protocol.text: Estimated solubility by solvent addition method via visual assessment
- Assay type: physicochemical
- applied.conditions: organic solvent or mixture, thermodynamic from solid; 1,4-Dioxane, RT; read-out: Solubility, Concentration
metric: solubility

Give solubility for the following compound: Cc1n[nH]c2nc(-c3ccc(NS(=O)(=O)c4cc(F)ccc4F)c(F)c3)nc(NCCN(C)C)c12.Cl [Compound 3 Form B]
< 1500 µg/mL

----------
- protocol.text: Estimated solubility by solvent addition method via visual assessment
- Type: physicochemical
- applied.conditions: organic solvent or mixture, thermodynamic from solid; MeOH, room temperature; read-out: Solubility
metric: solubility

Return solubility (reported value) for this compound: Cc1n[nH]c2nc(-c3ccc(NS(=O)(=O)c4cc(F)ccc4F)c(F)c3)nc(NCCN(C)C)c12 [Compound 4 Form B]
12 to 20 mg/mL

----------
- protocol.text: Estimated solubility by solvent addition method via visual assessment
- Format: physicochemical
- applied.conditions: organic solvent or mixture, thermodynamic from solid; DCM, RT; read-out: Solubility, Concentration
metric: solubility

Query solubility for Cc1n[nH]c2nc(-c3ccc(NS(=O)(=O)c4cc(F)ccc4F)c(F)c3)nc(NCCN(C)C)c12.Cl [Compound 3 Form B]
< 1500 µg/mL
